assay: The maximum plasma concentration (Cmax) is the observed peak plasma concentration after an oral dose on rat.; format: ADME, organism-based; design: route oral
MEASURE_NAME: Cmax (nM)
Response body: numeric value in nM, unit text excluded.

Determine from records and report Cmax for "O=C1N(Cc2cccc(O)c2)[C@H](CCc2ccccc2)[C@@H](O)[C@@H](Cc2ccccc2)N1Cc1cccc(O)c1" 120

Determine from records and report Cmax for "O=C1N(Cc2cccc(-c3cc[nH]n3)c2)[C@H](Cc2ccccc2)[C@H](O)[C@@H](O)[C@@H](Cc2ccccc2)N1Cc1cccc(-c2cc[nH]n2)c1" 70

Determine from records and report Cmax for "O=C1N(Cc2cccc(CO)c2)[C@H](Cc2ccccc2)[C@H](O)[C@@H](O)[C@@H](Cc2ccccc2)N1Cc1cccc(CO)c1" 830

Determine from records and report Cmax for "O=C1N(Cc2cccc(O)c2)[C@H](Cc2ccccc2)[C@H](O)[C@@H](O)[C@@H](Cc2ccccc2)N1Cc1cccc(O)c1" 810

Determine from records and report Cmax for "O=C1N(Cc2cccc(O)c2)[C@H]([C@@H](F)Cc2ccccc2)[C@@H](O)[C@@H](Cc2ccccc2)N1Cc1cccc(O)c1" 250

Determine from records and report Cmax for "Nc1cccc(CN2C(=O)N(Cc3cccc(N)c3)[C@H](Cc3ccccc3)[C@H](O)[C@@H](O)[C@H]2Cc2ccccc2)c1" 2250

Determine from records and report Cmax for "CC(=O)c1cccc(CN2C(=O)N(Cc3cccc(C(C)=O)c3)[C@H](Cc3ccccc3)[C@H](O)[C@@H](O)[C@H]2Cc2ccccc2)c1" 500
